- Protocol Text: yeast display, Sf9 membrane polyspecificity reagent, FACS + sequencing; frameworks hold sequencing errors

- Sequence Entry: "QVQLVESGGGLDQAGGSLSLSCAASGIIFAGNAMGWYRQPPGKERELVAAISSNGGSTYYADSVKGRFTISRDNAKNTVYLQMNSLKPEDTAVYYCAADRVYWGRVQGYYWGQGTQVTVSS"
  polyreactivity (PSR sort gate): "low polyreactivity"
- Sequence Entry: "QVQLVESGGGLVQAGGSLRLSCAASGFIFRPYAMGWYRQAPGKERELVATIRWGASSTHYADSVKGRFTISRDNAKNTVYLQMNSLKPEDTAVYDCNADGWYGAVYWWFYGFDYWGQGTQVTVSS"
  polyreactivity (PSR sort gate): "low polyreactivity"
- Sequence Entry: "QVQLVESGGGLVQAGGSLRLSCAASGRTFERNTMRWYRQAPGKERELVAAISYDGGSTYYADSVKGRFTISRDNAKNTVYFQLNSLKPEDRAVYYCNAGGSEIYRSPFDYWGQGTQVTVSS"
  polyreactivity (PSR sort gate): "low polyreactivity"
